# Experiment description: AP1 Signaling Pathway (AID 357);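 note: ME-180 reporter cells stimulated with EGF at its EC50 level; % is set by controls: 0 for no effect and ±100 for the full control effect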
# Reported conditions: ME-180 (cervical carcinoma) AP-1-bla reporter, EGF-induced, beta-lactamase ratio, 5 h; at 17.2 µM (top of the series) unless noted
Results filed as inconclusive are left out.
Value kind: activity change, negative = inhibition (%)
Report the value in % with no unit label.

Sample CCCCCOc1ccccc1C(=O)NCCCC(=O)O — what was its activity change, negative = inhibition? 2.16

Form field: reported activity change, negative = inhibition of Cc1cc(C(C)(C)CC(C)(C)C)ccc1OCCOCC[N+](C)(C)Cc1ccccc1 18.1

Query: activity change, negative = inhibition; subject: c1ccc(OCc2nn3c(C4CCCCC4)nnc3s2)cc1 -8.37

For the molecule Cc1ccc(CC2CC(=O)N(c3ccc4c(c3)OCCO4)C2=O)cc1 (centres undefined) , what activity change, negative = inhibition is on record? -5.59
